# testSummary: in vivo
# measurementParameters: monkey
metricName: Kp

q: Item COc1cc(C(=O)N2CCC3(CC2)CC(=O)c2c(cnn2C(C)C)C3)cc(-c2ccc(C(=O)O)cc2)n1 has what recorded Kp?
a: ≥ 100

* * *

# testSummary: in vivo
# measurementParameters: rat
metricName: Kp

q: What value of Kp has been recorded for this entry: COc1cc(C(=O)N2CCC3(CC2)CC(=O)c2c(cnn2C(C)C)C3)cc(-c2ccc(C(=O)O)cc2)n1
a: ≥ 100
